target: human ACC1 (acetyl-coenzyme A carboxylase alpha transcript variant 1) (Homo sapiens); construct: FLAG (C); made in house; host or cells: baculovirus-infected insect cells (Hi5); experiment: Human ACC1 enzyme assay, Assay B1 (ADP-Glo); format: biochemical; settings: Assay B1; read-out: ACC 1 (=B1) IC50
Record form. Attribute: log10 of IC50. Fill in for each entry.
// stored as log10 of IC50 expressed in nM

Query: Query (molecule): Cc1ccc(-c2ccc(Cl)cc2)cc1C1=C(O)C(C)N(C(C)C)C1=O (stereo not drawn) ; field requested: log10 of IC50
Result: 2.73

Query: Same again, this time with Cc1ccc(-c2ccc(Cl)cc2)cc1C1=C(O)C2(CCC3(CC2)OCC(C)(C)CO3)NC1=O
Result: 2.96

Query: Queued: Cc1ccc(-c2ccc(F)c(F)c2)cc1C1=C(O)C2(CCOCC2)NC1=O
Result: 2.93

Query: Likewise for Cc1ccc(-c2ccc(F)cc2)c(C)c1C1=C(O)C2(CCCCC2)NC1=O ?
Result: 3.12

Query: Cc1ccc(-c2ccc(Cl)cc2)cc1C1=C(O)CC(C)(C)NC1=O , same question.
Result: 3.58

Query: Note, next up: Cc1ccc(-c2ccc(Cl)cc2)cc1C1=C(O)C(C)(C)C(C)(C)NC1=O
Result: 3.81

Query: Request: Cc1ccc(-c2ccc(C)c(C3=C(O)C4(CCCCC4)CC3=O)c2)cc1
Result: 2.61

Query: Next up: Cc1ccc(-c2ccc(Cl)cc2)cc1C1C(=O)N2CCCCN2C1=O
Result: 3.02

Query: Another molecule: Cc1ccc(-c2ccc(Cl)cc2)cc1C1=C(O)C2(CCCC(C)C2)NC1=O (stereo not drawn)
Result: 2.73

----------
tested on: MCF7; test: Cell proliferation assay (CellTiter-Glo, 96 h), MCF7; assay type: cell-based; settings: Homo sapiens; MCF7 cells
Recorded Metric: IC50 (nM)
Record the value in nM, omitting the unit from your answer.

Query: Request - read-out IC50 | tested on MCF7 | compound Cc1ccc(-c2ccc(Cl)cc2)cc1C1=C(O)C(C)(C)C(C)(C)NC1=O
Result: 1460

Query: Likewise for Cc1cc(C)c(-c2ccc(Cl)cc2)c(C)c1C1=C(O)[C@]2(CC[C@@]3(CCCO3)CC2)OC1=O ?
Result: 490

Query: Try this compound too: COC1CCC2(CC1)OC(=O)C(c1c(C)ccc(-c3ccc(Cl)cc3)c1C)=C2O (stereo not shown)
Result: 429

Query: What do we get for COCCC1CCCC2(C1)OC(=O)C(c1cc(-c3ccc(Cl)cc3)ccc1C)=C2O (stereo not shown) ?
Result: 935

Query: Also COC1CCCC2(C1)OC(=O)C(c1c(C)cc(C)c(-c3ccc(Cl)cc3)c1C)=C2O (stereo not shown) ?
Result: 1240

Query: Do the same for Cc1ccc(-c2ccc(Cl)cc2)cc1C1=C(O)C2(CCCCC2)CNC1=O please
Result: 1530

Query: Subsequent entry: Cc1ccc(-c2ccc(Cl)cc2)cc1C1C(=O)N(C)OC(C)(C)C1=O (stereo not shown)
Result: 3330

Query: Please do the same for Cc1cc(C)c(-c2ccc(Cl)cc2)cc1C1=C(O)C2(CCSCC2)OC1=O as well.
Result: 466

Query: Now try COCC1CCC2(CC1)OC(=O)C(c1cc(-c3ccc(Cl)cc3)ccc1C)=C2O (stereo not shown) .
Result: 214

Query: For Cc1cc(C)c(-c2ccc(Cl)cc2)cc1C1=C(O)C2(CCCCCC2)OC1=O then?
Result: 263

Query: Repeat for the following compound: Cc1ccc(-c2ccc(Cl)cc2)cc1C1=C(O)C(C)(C)OC1=O
Result: 1060

Query: Next: Cc1ccc(-c2ccc(Cl)cc2)cc1C1=C(O)CC(C)(C)N(C)C1=O
Result: 3440

Query: Try this compound too: Cc1ccc(-c2ccc(Cl)cc2)c(C)c1C1=C(O)C2(CCC(OCC(F)(F)F)CC2)OC1=O (stereo not shown)
Result: 112

Query: Entry to check: Cc1ccc(-c2ccc(Cl)cc2)c(C)c1C1=C(O)[C@]2(CC[C@]3(CCCO3)CC2)OC1=O
Result: 5520

Query: Now consider Cc1cc(C)c(-c2ccc(Cl)cc2)cc1C1=C(O)[C@]2(CC[C@@]3(CCCO3)CC2)OC1=O and answer again.
Result: 64

Query: Entry to check: Cc1cc(C)c(-c2ccc(Cl)cc2)cc1C1=C(O)C(C)OC1=O (stereo not shown)
Result: 6700

Query: Similarly, CCCOC1CCC2(CC1)OC(=O)C(c1cc(-c3ccc(Cl)cc3)c(C)cc1C)=C2O (stereo not shown) ?
Result: 302

Query: Likewise for Cc1ccc(-c2ccc(F)cc2)cc1C1=C(O)[C@]2(CC[C@@]3(CCCO3)CC2)OC1=O ?
Result: 296

Query: Another: COCC1CCC2(CC1)OC(=O)C(c1c(C)ccc(-c3ccc(Cl)cc3)c1C)=C2O (stereo not shown)
Result: 400

Cited source for all entries: patent US20130040935A1
